target: JAK1 (Homo sapiens (Human))
Sequence (P23458 whole entry): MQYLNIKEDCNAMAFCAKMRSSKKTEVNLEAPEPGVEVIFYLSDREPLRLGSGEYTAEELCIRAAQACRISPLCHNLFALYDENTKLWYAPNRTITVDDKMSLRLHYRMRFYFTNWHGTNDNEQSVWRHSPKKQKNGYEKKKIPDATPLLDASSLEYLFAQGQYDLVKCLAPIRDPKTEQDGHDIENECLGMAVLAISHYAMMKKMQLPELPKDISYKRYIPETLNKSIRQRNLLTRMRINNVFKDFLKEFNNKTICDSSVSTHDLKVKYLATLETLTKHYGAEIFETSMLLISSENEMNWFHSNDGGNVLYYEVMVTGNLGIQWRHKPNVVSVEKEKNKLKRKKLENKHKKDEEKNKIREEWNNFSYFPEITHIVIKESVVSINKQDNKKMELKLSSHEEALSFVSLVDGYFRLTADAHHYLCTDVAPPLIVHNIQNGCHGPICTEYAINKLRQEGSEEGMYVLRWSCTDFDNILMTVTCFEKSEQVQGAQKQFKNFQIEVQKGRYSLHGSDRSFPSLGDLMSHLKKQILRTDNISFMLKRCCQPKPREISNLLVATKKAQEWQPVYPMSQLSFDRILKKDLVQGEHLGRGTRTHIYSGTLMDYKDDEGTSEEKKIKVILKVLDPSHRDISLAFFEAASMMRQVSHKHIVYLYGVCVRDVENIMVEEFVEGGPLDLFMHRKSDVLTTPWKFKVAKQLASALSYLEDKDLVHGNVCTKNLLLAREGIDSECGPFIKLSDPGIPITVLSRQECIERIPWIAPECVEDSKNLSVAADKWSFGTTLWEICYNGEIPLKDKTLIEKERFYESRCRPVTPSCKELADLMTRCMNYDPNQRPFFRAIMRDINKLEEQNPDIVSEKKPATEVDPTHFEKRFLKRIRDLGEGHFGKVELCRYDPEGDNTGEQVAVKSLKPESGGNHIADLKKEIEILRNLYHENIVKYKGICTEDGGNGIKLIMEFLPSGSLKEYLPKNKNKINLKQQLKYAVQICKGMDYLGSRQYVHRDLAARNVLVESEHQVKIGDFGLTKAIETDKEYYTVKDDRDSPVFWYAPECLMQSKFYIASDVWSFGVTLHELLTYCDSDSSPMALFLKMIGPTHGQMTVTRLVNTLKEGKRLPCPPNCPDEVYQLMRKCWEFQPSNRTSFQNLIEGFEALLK
IC50 less than 500 nM is True; IC50 greater than or equal to 500 nM is False.

Solved entries (count: 6):
CC(C)(C)S(=O)(=O)Nc1cc(-n2ccc3cnc(Nc4cc(F)c5c(c4)CC4CNCCN54)nc32)ccc1F (stereo not shown) [drawing 443]
False
CC(C)(C)S(=O)(=O)Nc1cccc(-n2ccc3cnc(Nc4ccc(C5CCNCC5)cc4)nc32)c1
True
CN1CCN(c2ccc(Nc3ncc4ccn(-c5cccc(NS(=O)(=O)C6CC6)c5)c4n3)cc2)CC1 [drawing 278]
True
Cc1cnc(Nc2ccc(C(=O)NC3CCN(C)CC3)c(F)c2)nc1Nc1ccc2c(c1)N(S(=O)(=O)C(C)(C)C)CC2
False
CC(C)(C)S(=O)(=O)Nc1cccc(-n2ccc3cnc(Nc4ccc(N5CCNCC5)cc4)nc32)c1 [drawing 283]
True
CN(C)C1CCN(c2ccc(Nc3ncc4scc(-c5ccc(F)c(NS(=O)(=O)C(C)(C)C)c5)c4n3)cc2F)CC1
False

Next up:
Record CN(C)C1CCN(c2ccc(Nc3ncc4ccn(-c5ccc(F)c(NS(=O)(=O)C(C)(C)C)c5)c4n3)cc2F)CC1 [drawing 366] : is its IC50 strictly below 500 nM? False

###

target: BRD2-BD1 (Homo sapiens (Human), UniProt P25440)
Sequence (P25440 74-180): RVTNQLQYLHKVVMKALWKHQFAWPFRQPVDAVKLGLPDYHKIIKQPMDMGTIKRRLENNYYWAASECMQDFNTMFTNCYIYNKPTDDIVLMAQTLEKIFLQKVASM
method-notes: AlphaLisa bromodomain binding assay, BRD2-BD1
condition-parameters: Table 6; read-out: BRD2(1) IC50
Protocol: An AlphaLisa assay was used to observe bromodomain binding and measure IC50s for the compounds disclosed herein. An AlphaLisa assay is a bead-based assay used to detect interactions between bromodomains and polyacetylated histone peptides. […] Equipment Required • 1. […] Microplate reader (Pherastar) […] The percent inhibition is calculated in the excel analysis template and the IC50 values are subsequently determined using a sigmoidal dose-response curve (variable slope) using GraphPad Prism® 5 software.
measurement-type: pIC50
Just the number, please; pIC50 means minus log10 of the concentration in mol/L.

CC(C)(C)S(=O)(=O)Nc1cccc(-n2ccc3cnc(Nc4ccc(C(=O)N5CCNCC5)c(F)c4)nc32)c1 [drawing 462]
6.33
Cc1ccc(Nc2nc(Nc3ccc(N4CCN(C)CC4)cc3)nc3ccccc23)cc1NS(=O)(=O)C(C)(C)C
6.20
CN(C)C1CCN(c2ccc(Nc3ncc4ccn(-c5ccc(F)c(NS(=O)(=O)C(C)(C)C)c5)c4n3)cc2F)CC1 [drawing 366]
6.64

// CN1CCC(Nc2nc(Nc3ccc4c(c3)N(S(=O)(=O)C(C)(C)C)CC4)c3ccsc3n2)CC1 [drawing 204] : pIC50 value = 6.11

Noted for CN1CCN(c2ccc(Nc3ncc4ccn(-c5cccc(NS(=O)(=O)C(C)(C)C)c5)c4n3)cc2)CC1 [drawing 260] : its pIC50 reads 6.15

###

target: BRDT-BD1 (Homo sapiens (Human))
method-notes: AlphaLisa bromodomain binding assay, BRDT-BD1
condition-parameters: Table 6; read-out: BRDT(1) IC50
measurement-type: pIC50
Would you please state pIC50, meaning minus log10 of the concentration in mol/L, as a bare number?

CC(C)(C)S(=O)(=O)Nc1cccc(-c2csc3cnc(Nc4ccc(N5CCNCC5)c(F)c4)nc23)c1
6.51

// CC(C)(C)S(=O)(=O)Nc1cc(-n2ccc3cnc(Nc4ccc(N5CCNCC5)c(F)c4)nc32)ccc1F [drawing 428] : pIC50 value = 6.93

Short answer for Cc1cnc(Nc2ccc(OCCN3CCCC3)cc2)nc1Nc1cccc(NS(=O)(=O)C(C)(C)C)c1 : pIC50 was 6.20

Consider Cc1cnc(Nc2ccc(N3CCN(C)CC3)cc2)nc1Nc1cccc(NS(=O)(=O)C(C)(C)C)c1 [drawing 271] . Its measured pIC50 is 6.64

###

target: JAK2 (Homo sapiens (Human))
Sequence (O60674 whole entry): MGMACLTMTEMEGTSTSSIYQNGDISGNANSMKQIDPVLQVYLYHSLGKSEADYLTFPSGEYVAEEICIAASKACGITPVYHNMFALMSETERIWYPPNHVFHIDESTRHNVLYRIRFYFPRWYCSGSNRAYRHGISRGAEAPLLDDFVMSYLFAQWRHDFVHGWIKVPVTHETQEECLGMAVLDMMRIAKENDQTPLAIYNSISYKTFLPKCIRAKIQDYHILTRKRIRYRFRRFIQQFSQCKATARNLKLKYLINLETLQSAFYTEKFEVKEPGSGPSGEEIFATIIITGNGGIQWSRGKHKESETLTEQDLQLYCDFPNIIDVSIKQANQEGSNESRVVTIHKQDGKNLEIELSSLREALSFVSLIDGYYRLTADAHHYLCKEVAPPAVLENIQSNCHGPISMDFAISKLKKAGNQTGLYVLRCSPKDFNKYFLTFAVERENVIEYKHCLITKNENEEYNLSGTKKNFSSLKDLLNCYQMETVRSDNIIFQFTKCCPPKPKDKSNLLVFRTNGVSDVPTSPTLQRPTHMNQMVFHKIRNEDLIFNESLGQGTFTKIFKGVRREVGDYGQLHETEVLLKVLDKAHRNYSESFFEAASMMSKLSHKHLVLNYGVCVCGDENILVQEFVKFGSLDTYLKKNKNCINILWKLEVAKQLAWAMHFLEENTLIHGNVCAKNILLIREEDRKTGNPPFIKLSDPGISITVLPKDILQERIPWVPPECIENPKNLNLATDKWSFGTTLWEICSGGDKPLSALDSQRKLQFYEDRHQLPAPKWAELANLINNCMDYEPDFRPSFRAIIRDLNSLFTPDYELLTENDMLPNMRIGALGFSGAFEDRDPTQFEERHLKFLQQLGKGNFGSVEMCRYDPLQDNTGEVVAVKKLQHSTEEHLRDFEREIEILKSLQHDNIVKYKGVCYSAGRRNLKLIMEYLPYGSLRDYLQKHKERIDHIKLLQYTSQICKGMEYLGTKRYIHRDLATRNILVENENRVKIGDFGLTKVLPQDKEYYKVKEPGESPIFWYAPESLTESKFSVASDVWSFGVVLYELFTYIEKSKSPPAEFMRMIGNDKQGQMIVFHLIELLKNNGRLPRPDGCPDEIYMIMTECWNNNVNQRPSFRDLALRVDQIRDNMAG
method-notes: HTRF kinase assay, JAK2
Assay type: biochemical
condition-parameters: Table 6
measurement-type: log10 of IC50 (log10 of the value in nM)
The base-10 logarithm of IC50, taken with IC50 in nM, is what appears here.

CNCCNC(=O)Cc1ccc(Nc2ncc3ccn(-c4ccc(F)c(NS(=O)(=O)C(C)(C)C)c4)c3n2)cc1
2.56
CN1CCC(Nc2nc(Nc3ccc4c(c3)N(S(=O)(=O)C(C)(C)C)CC4)c3ccsc3n2)CC1 [drawing 407]
4.00
CN1CCN(c2ccc(Nc3ncc4ccn(-c5ccc(F)c(NS(=O)(=O)C(C)(C)C)c5)c4n3)cc2)CC1 [drawing 340]
2.27

Entry CNCC1CCN(c2ccc(Nc3ncc4ccn(-c5cccc(NS(=O)(=O)C(C)(C)C)c5)c4n3)cc2F)CC1 — recorded log10 of IC50 = 0.85

The recorded log10 of IC50 for CC(C)(C)S(=O)(=O)Nc1cccc(-n2ccc3cnc(Nc4ccc5c(c4)CC4CNCCN54)nc32)c1 (stereo not shown) [drawing 404] is 1.26

###

target: BRD4-BD1 (Homo sapiens (Human))
method-notes: AlphaLisa bromodomain binding assay, BRD4-BD1
condition-parameters: Table 6; read-out: BRD4(1) IC50
measurement-type: pIC50
The meaning of pIC50 here: minus log10 of the concentration in molar units.

Recorded pIC50 (compound CNCCNc1ncc2cc(-c3cccc(-c4c(C)noc4C)c3)ccc2n1 ): 5.96

The reported value for CN(C)C1CCN(c2ccc(Nc3ncc4ccn(-c5ccc(F)c(NS(=O)(=O)C(C)(C)C)c5)c4n3)cc2F)CC1 [drawing 408] in terms of pIC50 is 7.20

compound CN1CCN(c2ccc(Nc3ncc4ccn(-c5cccc(NS(=O)(=O)C(C)(C)C)c5)c4n3)cc2)CC1 [drawing 260] , pIC50 observed: 6.66

pIC50 reported for this compound CN1CCN(c2ccc(Nc3ncc4scc(-c5ccc(F)c(NS(=O)(=O)C(C)(C)C)c5)c4n3)cc2F)CC1 : 6.64

###

We begin with a simple list: items and their reported pIC50.
target: JAK2 (Homo sapiens (Human))
method-notes: HTRF kinase assay, JAK2
Type: biochemical
condition-parameters: Table 6
Reminder that pIC50 means the negative base-10 logarithm of the concentration expressed in mol/L.

CC(C)(C)S(=O)(=O)Nc1cc(-n2ccc3cnc(Nc4ccc(N5CCNCC5)c(F)c4)nc32)ccc1F [drawing 428]
7.48
Cc1cnc(Nc2ccc(N3CCN(C)CC3)cc2)nc1-n1ccc2c1CCNC2=O
5.23
CN1CCN(c2cccc(Nc3ncc4ccn(-c5cccc(NS(=O)(=O)C(C)(C)C)c5)c4n3)c2)CC1
7.13
CN1CCN2c3c(F)cc(Nc4ncc5ccn(-c6cccc(NS(=O)(=O)C(C)(C)C)c6)c5n4)cc3CC2C1 (centres unmarked)
7.85

Read the next record carefully.
pIC50 on JAK2 (Homo sapiens (Human)) for CN1CCN(c2ccc(Nc3ncc4ccn(-c5cccc6c5CCN6S(=O)(=O)C(C)(C)C)c4n3)cc2)CC1 is 8.10

###

target: BRD4-BD1 (Homo sapiens (Human), UniProt O60885)
method-notes: AlphaLisa bromodomain binding assay, BRD4-BD1
condition-parameters: Table 6; read-out: BRD4(1) IC50
Overview of reported pIC50 across a group of molecules:
# log scale: pIC50 equals minus log10 of the concentration in mol/L

# example entries with known answers
CN1CCN(c2ccc(Nc3ncc4ccn(-c5ccc(F)c(NS(=O)(=O)C(C)(C)C)c5)c4n3)cc2F)CC1
6.83
CC(C)(C)S(=O)(=O)Nc1cc(-n2ccc3cnc(Nc4cc(F)c5c(c4)CC4CNCCN54)nc32)ccc1F (centres unmarked) [drawing 465]
6.94
CC(C)(C)S(=O)(=O)Nc1cccc(-n2ccc3cnc(Nc4cc(F)c5c(c4)CC4CNCCN54)nc32)c1 (centres unmarked)
6.52
CN1CCC(NC(=O)c2ccc(Nc3ncc4ccn(-c5ccc(F)c(NS(=O)(=O)C(C)(C)C)c5)c4n3)cc2)CC1
6.43
CN1CCC(c2ccc(Nc3ncc4ccn(-c5cccc(NS(=O)(=O)C(C)(C)C)c5)c4n3)cc2)CC1
6.24
CN1CCN(c2ccc(Nc3nc(-n4ccc(C(=O)NC5CC5)c4)c4ccsc4n3)cc2F)CC1
5.00
Cc1cnc(Nc2ccc(N3CCN(C)CC3)cc2)nc1Nc1cccc(NS(=O)(=O)C(C)(C)C)c1 [drawing 391]
6.85

Here is the next item to consider.
Summary for this molecule, CNCCNc1ncc2c(-c3cccc(-c4c(C)noc4C)c3)cn(C)c2n1 : pIC50 is 5.12

###

target: BRD4-BD1 (Homo sapiens (Human), UniProt O60885)
method-notes: AlphaLisa bromodomain binding assay, BRD4-BD1
condition-parameters: Table 6; read-out: BRD4(1) IC50
pIC50: −log10 of the molar value.
Rule: pIC50 of 6 or more gives Criterion met; anything lower gives Criterion not met.

See these solved cases before continuing.
CN(C)C1CCN2c3ccc(Nc4ncc5ccn(-c6cccc(NS(=O)(=O)C(C)(C)C)c6)c5n4)cc3CC2C1 (stereo not drawn) [drawing 444]
Criterion met
CN1CCN2c3ccc(Nc4ncc5scc(-c6cccc(NS(=O)(=O)C(C)(C)C)c6)c5n4)cc3CC2C1 (stereo not drawn)
Criterion met
CC(=O)N1CCC(c2ccc(Nc3ncc4ccn(-c5cccc(NS(=O)(=O)C6CC6)c5)c4n3)cc2)CC1
Criterion not met
CN1CCN(c2ccc(Nc3ncc4ccn(-c5ccc(Cl)c(NS(=O)(=O)C(C)(C)C)c5)c4n3)cc2)CC1
Criterion met
CN1CCN(c2ccc(Nc3nc(Nc4cccc(NS(=O)(=O)C(C)(C)C)c4)c4ccsc4n3)cc2)CC1 [drawing 153]
Criterion met
CC(C)(C)S(=O)(=O)Nc1ccc(Nc2nc(NC3CCNCC3)nc3sccc23)cc1
Criterion not met
CC(C)(C)S(=O)(=O)Nc1cccc(Nc2nc(NC3CCNCC3)nc3sccc23)c1 [drawing 270]
Criterion met
CN1CCC(NC(=O)c2ccc(Nc3ncc4ccn(-c5cccc(NS(=O)(=O)C6CC6)c5)c4n3)cc2)CC1
Criterion not met
Cc1cnc(Nc2ccc(N3CCN(C)CC3)cc2)nc1Nc1cccc(NS(=O)(=O)C(C)(C)C)c1 [drawing 258]
Criterion met
CN1CCN(c2ccc(Nc3nc4c(c(Nc5cccc(NS(=O)(=O)C(C)(C)C)c5)n3)CCNC4)cc2)CC1
Criterion not met

Tell me whether pIC50 is at least 6 here: CN1CCN(c2cccc(Nc3nc(Nc4cccc(NS(=O)(=O)C(C)(C)C)c4)c4ccsc4n3)c2)CC1 Criterion not met

Tell me whether pIC50 is at least 6 here: CN1CCC(Nc2nc(Nc3ccc4c(c3)N(S(=O)(=O)C(C)(C)C)CC4)c3ccsc3n2)CC1 [drawing 407] Criterion met
